system: CDK2 (Homo sapiens, UniProt P24941)
Construct: host or cells: HEK293-CDK2-Hibit
experiment.notes: HiBit Assay Protocol for CDK2 (HIBIT protein quantification, degradation)
Type: cell-based
measurement.parameters: HEK293-CDK2-Hibit cells, compound treatment for 6 hours, ABS DC50
DC50 less than 2 nM is Met; DC50 greater than or equal to 2 nM is Not met.

>>> assigned_class("CC1CCCC1N1C(=O)C2(CC2)c2cnc(NC3CCN(S(=O)(=O)N4CC(N(C)C(=O)CCCc5cccc6c5n(C)c(=O)n6C5CCC(=O)NC5=O)C4)CC3)nc21 (centres unmarked) [Compound 22]")
"Not met"
>>> assigned_class("CC1CCCC1N1C(=O)C2(CC2)c2cnc(NC3CCN(S(=O)(=O)C4CCN(C(=O)CCCCCCCCCc5ccc6c(c5)n(C)c(=O)n6C5CCC(=O)NC5=O)C4)CC3)nc21 (centres unmarked) [Compound 90]")
"Not met"
>>> assigned_class("CC1CCCC1N1C(=O)C2(CC2)c2cnc(NC3CCN(S(=O)(=O)C4CCN(CC5CCN(c6ccc7c(c6)n(C)c(=O)n7C6CCC(=O)NC6=O)CC5)C4)CC3)nc21 (centres unmarked) [Compound 140]")
"Not met"
>>> assigned_class("CC(c1cc(S(=O)(=O)N2CC[C@H](Nc3ncc4c(n3)N([C@@H]3CCC[C@@H](O)C3)C(=O)C43CC3)[C@H](F)C2)ccc1F)N1CCC(c2ccc3c(N4CCC(=O)NC4=O)nn(C)c3c2)CC1 (single isomer, unassigned) [Compound 201]")
"Not met"
>>> assigned_class("Cn1nc(N2CCC(=O)NC2=O)c2ccc(C3CCN(Cc4cccc(S(=O)(=O)N5CCC(Nc6ncc7c(n6)N([C@H]6CCC[C@]6(C)O)C(=O)C76CC6)CC5)c4)CC3)cc21 [Compound 178]")
"Met"

###

system: CDK2 (Homo sapiens)
Construct: host or cells: HEK293-CDK2-Hibit
experiment.notes: HiBit Assay Protocol for CDK2 (HIBIT protein quantification, degradation)
Format: cell-based
measurement.parameters: HEK293-CDK2-Hibit cells, compound treatment for 6 hours, ABS DC50
value.type: DC50

>>> result("C[C@@H](c1cccc(S(=O)(=O)N2CCC(Nc3ncc4c(n3)N([C@@H]3CCC[C@@H](O)C3)C(=O)C43CC3)CC2)c1)N1CCC(c2ccc3c(N4CCC(=O)NC4=O)nn(C)c3c2)CC1 (single isomer, unassigned)")
"4.22 nM"
>>> result("CC1CCCC1N1C(=O)C2(CC2)c2cnc(NC3CCN(S(=O)(=O)N4CCC5(CCN(C(=O)CCCCCCCCCc6cccc7c6n(C)c(=O)n7C6CCC(=O)NC6=O)C5)C4)CC3)nc21 (stereo not drawn)")
"2 nM"
>>> result("CC1CCCC1N1C(=O)C2(CC2)c2cnc(NC3CCN(S(=O)(=O)N4CC5(CCCCN5C(=O)CCCCc5cccc6c5n(C)c(=O)n6C5CCC(=O)NC5=O)C4)CC3)nc21 (stereo not drawn)")
"11 nM"

###

system: CDK2 (Homo sapiens, UniProt P24941)
Construct: host or cells: HEK293-CDK2-Hibit
experiment.notes: HiBit Assay Protocol for CDK2 (HIBIT protein quantification, degradation)
Format: cell-based
measurement.parameters: HEK293-CDK2-Hibit cells, compound treatment for 6 hours, ABS DC50
value.type: DC50 (nM)

>>> recorded_number("CC1CCCC1N1C(=O)C2(CC2)c2cnc(NC3CCN(S(=O)(=O)C4CCN(C(=O)CCCCCCCCCc5cccc6c5n(C)c(=O)n6C5CCC(=O)NC5=O)C4)CC3)nc21 (stereo not shown)")
10
>>> recorded_number("CC(c1cccc(S(=O)(=O)N2CC[C@H](Nc3ncc4c(n3)N([C@@H]3CCC[C@@H](O)C3)C(=O)C43CC3)[C@H](F)C2)c1)N1CCC(c2ccc3c(N4CCC(=O)NC4=O)nn(C)c3c2)CC1 (stereo partly shown)")
1.92
>>> recorded_number("Cn1nc(N2CCC(=O)NC2=O)c2ccc(C3CCN(Cc4cncc(S(=O)(=O)N5CCC(Nc6ncc7c(n6)N([C@H]6CCC[C@H](O)C6)C(=O)C76CC6)CC5)c4)CC3)cc21 (stereo in doubt)")
6.06
>>> recorded_number("Cn1nc(N2CCC(=O)NC2=O)c2ccc(C3CCN(Cc4ccnc(S(=O)(=O)N5CCC(Nc6ncc7c(n6)N([C@@H]6CCC[C@@H](O)C6)C(=O)C76CC6)CC5)c4)CC3)cc21")
10.1
>>> recorded_number("Cn1nc(N2CCC(=O)NC2=O)c2ccc(C3CCN(Cc4cccc(S(=O)(=O)N5CC[C@@H](Nc6ncc7c(n6)N([C@@H]6CCC[C@@H](O)C6)C(=O)C76CC6)[C@H](F)C5)c4)CC3)cc21")
2.64
>>> recorded_number("O=C1CCC(N2Cc3cc(N4CCC(CN5CCN(c6cccc(S(=O)(=O)N7CCC(Nc8ncc9c(n8)N([C@@H]8CCC[C@@H](O)C8)C(=O)C98CC8)CC7)c6)CC5)CC4)ccc3C2=O)C(=O)N1 (stereo partly shown)")
3
>>> recorded_number("Cn1nc(N2CCC(=O)NC2=O)c2ccc(C3CCN(Cc4ccc(F)c(S(=O)(=O)N5CCC(Nc6ncc7c(n6)N([C@@H]6CCC[C@@H](O)C6)C(=O)C76CC6)CC5)c4)CC3)cc21")
4.43
>>> recorded_number("CC1CCCC1N1C(=O)C2(CC2)c2cnc(NC3CCN(S(=O)(=O)C4CCN(C(=O)CCCCCCCc5cccc6c5n(C)c(=O)n6C5CCC(=O)NC5=O)C4)CC3)nc21 (stereo not shown)")
14.6
>>> recorded_number("CC1CCCC1N1C(=O)C2(CC2)c2cnc(NC3CCN(S(=O)(=O)N4CCCN(C(=O)CCCCc5cccc6c5n(C)c(=O)n6C5CCC(=O)NC5=O)CC4)CC3)nc21 (stereo not shown)")
6
>>> recorded_number("CC1CCCC1N1C(=O)C2(CC2)c2cnc(NC3CCN(S(=O)(=O)N4CCC(CN5CCC(c6cccc7c6n(C)c(=O)n7C6CCC(=O)NC6=O)CC5)CC4)CC3)nc21 (stereo not shown)")
4.56
